# Test system: Escherichia coli TOP10;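 note: peptides expressed intracellularly from a pBAD plasmid library in pooled LB shake-flask culture, induced with 0.3% L-arabinose, DNA abundance read by NGS, three biological replicates, DESeq2 with apeglm shrinkage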
# EXPERIMENT: shrunken log2 fold change of peptide-encoding DNA abundance (4.5 h post-induction vs induction); higher = less antimicrobial activity (less host growth inhibition)
# MEASUREMENT_CONDITIONS: time post-induction: 4.5 h; library: site-saturation at positions 5, 18, 19, 20
# binning rule on shrunken log2 fold change: c1 (below -0.1), c2 (-0.1 to below 0.01), c3 (0.01 or more)

INPUT_SEQUENCE	CLASS_ASSIGNMENT
RRIRVRPPRLPRPRPRPYKHPRP	c1
RRIRNRPPRLPRPRPRPRIDPRP	c2
RRIRRRPPRLPRPRPRPTSRPRP	c3
RRIRDRPPRLPRPRPRPANKPRP	c1
RRIRIRPPRLPRPRPRPCVHPRP	c1
RRIRSRPPRLPRPRPRPSKRPRP	c1
RRIRIRPPRLPRPRPRPADAPRP	c1
RRIRYRPPRLPRPRPRPHFEPRP	c1
RRIRQRPPRLPRPRPRPWTAPRP	c1
RRIRYRPPRLPRPRPRPMNTPRP	c1
RRIRNRPPRLPRPRPRPIAKPRP	c2
RRIRMRPPRLPRPRPRPAMIPRP	c2
RRIRNRPPRLPRPRPRPFYRPRP	c1
RRIRYRPPRLPRPRPRPKWFPRP	c1
RRIRERPPRLPRPRPRPSKSPRP	c1
RRIRMRPPRLPRPRPRPDVIPRP	c2
RRIRPRPPRLPRPRPRPTKGPRP	c3
RRIRRRPPRLPRPRPRPIHNPRP	c1
RRIRRRPPRLPRPRPRPVTTPRP	c3
RRIRRRPPRLPRPRPRPEGTPRP	c3
RRIRCRPPRLPRPRPRPQEEPRP	c2
RRIRMRPPRLPRPRPRPNGEPRP	c3
RRIRWRPPRLPRPRPRPYCQPRP	c1
RRIRGRPPRLPRPRPRPMPDPRP	c3
RRIRSRPPRLPRPRPRPLACPRP	c3
RRIRYRPPRLPRPRPRPKEEPRP	c2
RRIRKRPPRLPRPRPRPYWYPRP	c1
RRIRSRPPRLPRPRPRPIAWPRP	c2
RRIRTRPPRLPRPRPRPDMEPRP	c1
RRIRQRPPRLPRPRPRPIPLPRP	c1
RRIRDRPPRLPRPRPRPFATPRP	c3
RRIRPRPPRLPRPRPRPVNIPRP	c1
RRIRRRPPRLPRPRPRPCDKPRP	c2
RRIRERPPRLPRPRPRPKDPPRP	c3
RRIRMRPPRLPRPRPRPLPSPRP	c3
RRIRDRPPRLPRPRPRPGCMPRP	c3
RRIRVRPPRLPRPRPRPLDIPRP	c2
RRIRTRPPRLPRPRPRPPWAPRP	c3
RRIRMRPPRLPRPRPRPDYNPRP	c1
RRIRDRPPRLPRPRPRPNFIPRP	c2
RRIRFRPPRLPRPRPRPYYKPRP	c1
RRIRMRPPRLPRPRPRPFQTPRP	c2
RRIRDRPPRLPRPRPRPSWTPRP	c1
RRIRERPPRLPRPRPRPQMAPRP	c2
RRIRYRPPRLPRPRPRPPTRPRP	c3
RRIRVRPPRLPRPRPRPDCFPRP	c3
RRIRMRPPRLPRPRPRPDCPPRP	c3
RRIRLRPPRLPRPRPRPSMFPRP	c1
RRIRMRPPRLPRPRPRPMMVPRP	c2
RRIRGRPPRLPRPRPRPYEIPRP	c1
RRIRKRPPRLPRPRPRPDAKPRP	c3
RRIRSRPPRLPRPRPRPLCRPRP	c2
RRIRARPPRLPRPRPRPKIRPRP	c3
RRIRGRPPRLPRPRPRPWYSPRP	c1
RRIRCRPPRLPRPRPRPAPFPRP	c3
RRIRVRPPRLPRPRPRPEWVPRP	c3
RRIRYRPPRLPRPRPRPYMLPRP	c1
RRIRYRPPRLPRPRPRPCHTPRP	c1
RRIRWRPPRLPRPRPRPRKWPRP	c3
RRIRCRPPRLPRPRPRPTDQPRP	c3
RRIRFRPPRLPRPRPRPWEPPRP	c1
